- measured on: Dual specificity tyrosine-phosphorylation-regulated kinase 1A (Homo sapiens)
- test method notes: DYRK1A Inhibition Assay
I'd appreciate it if you could supply IC50 values for the items below.

Incoming: Please look up its IC50: c1cc(-c2ccc3ncn(C4CCNCC4)c3c2)ccn1 [US20250099442, Compound I.31]
Outgoing: 100 to 1000 nM

Incoming: Can you look up the measured IC50 of O=C(OCc1ccccc1)N1CCC(n2cnc3ccc(-c4ccncc4)cc32)CC1 [US20250099442, Compound I.30] for me?
Outgoing: 10 to 100 nM

Incoming: Item c1ccc(Oc2cc(-c3ccc4c(c3)CCO4)ccn2)cc1 [US20250099442, Compound I.10] has what recorded IC50?
Outgoing: > 1000 nM

Incoming: What does the record list as IC50 for CCCOc1cc(COC2CCN(C)CC2)nc2[nH]cc(C(F)(F)F)c12 [US20250099442, Compound II.7] ?
Outgoing: < 500 nM

Incoming: Bench note: what IC50 did C[C@@H]1CC(C(=O)Nc2cn3cc(-c4ccncc4)ccc3n2)C[C@H](C)N1 (stereo partly specified) [US20250099442, Compound I.65] show?
Outgoing: 10 to 100 nM

Incoming: For CC(C)CN1CCC(C(=O)Nc2cc(-c3ccc4nn(C)cc4c3)ccn2)CC1 [US20250099442, Compound I.18] , what is its reported IC50?
Outgoing: 10 to 100 nM

Incoming: Report IC50 for CC(C)CN1CCC(CNc2cc(-c3cn(C(C)C)c4cnccc34)ccn2)CC1 [US20250099442, Compound I.6] please.
Outgoing: 10 to 100 nM

Incoming: // query IC50 value for entry CC(C)n1cc(-c2ccncc2)c2ccncc21 [US20250099442, Compound I.2]
Outgoing: < 10 nM

Incoming: Given the molecule CC(=O)N1CCCC(n2cnc3ccc(-c4ccncc4)cc32)C1 (stereo unspecified) [US20250099442, Compound I.23] , what is its reported IC50?
Outgoing: 100 to 1000 nM

Incoming: IC50 lookup needed for c1cc(Cc2cnc3ccc(-c4ccncc4)cn23)c2cn[nH]c2c1 [US20250099442, Compound I.28] , thanks.
Outgoing: 100 to 1000 nM

Incoming: What value of IC50 has been reported for the following molecule? CC(C)CN1CCC(C(=O)Nc2cc(-c3cn(C(C)C)c4cnccc34)ccn2)CC1 [US20250099442, Compound I.4]
Outgoing: < 10 nM

Incoming: Entry under review: CC(C)CN1CCC(C(=O)Nc2cc(-c3ccc4c(cnn4C)c3)ccn2)CC1 [US20250099442, Compound I.17] . Reported IC50?
Outgoing: 10 to 100 nM

Incoming: I have this molecule here, CN1CC2C(C1)C2C(=O)Nc1cc2cc(-c3ccncc3)cn2cn1 (stereo unspecified) [US20250099442, Compound I.72] , and I need its recorded IC50.
Outgoing: 10 to 100 nM

Incoming: Endpoint output: IC50 of COc1ccc(CN2Cc3ncc(-c4ccc(C#N)cc4)n3CC2=O)cc1 [US20250099442, Compound I.82] . Value?
Outgoing: > 1000 nM

Incoming: Dear colleague, I am looking for the recorded IC50 of the following molecule: CN1CCC(C(=O)Nc2cn3cc(-c4ccncc4)ccc3n2)CC1 [US20250099442, Compound I.42]
Outgoing: < 10 nM

Incoming: Which IC50 value belongs to O=C(Nc1cc2cc(-c3ccncc3)cn2cn1)C1CCOCC1 [US20250099442, Compound I.63] ?
Outgoing: 10 to 100 nM
